- testSystem: rSmTAChE (Schistosoma mansoni, UniProt A0A3Q0KMM5);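 as to Inhibition (%) Replicate B: mostly 20 µM final but a few compounds at 5 or 10 µM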
- Sequence (A0A3Q0KMM5 27-661 limits assumed): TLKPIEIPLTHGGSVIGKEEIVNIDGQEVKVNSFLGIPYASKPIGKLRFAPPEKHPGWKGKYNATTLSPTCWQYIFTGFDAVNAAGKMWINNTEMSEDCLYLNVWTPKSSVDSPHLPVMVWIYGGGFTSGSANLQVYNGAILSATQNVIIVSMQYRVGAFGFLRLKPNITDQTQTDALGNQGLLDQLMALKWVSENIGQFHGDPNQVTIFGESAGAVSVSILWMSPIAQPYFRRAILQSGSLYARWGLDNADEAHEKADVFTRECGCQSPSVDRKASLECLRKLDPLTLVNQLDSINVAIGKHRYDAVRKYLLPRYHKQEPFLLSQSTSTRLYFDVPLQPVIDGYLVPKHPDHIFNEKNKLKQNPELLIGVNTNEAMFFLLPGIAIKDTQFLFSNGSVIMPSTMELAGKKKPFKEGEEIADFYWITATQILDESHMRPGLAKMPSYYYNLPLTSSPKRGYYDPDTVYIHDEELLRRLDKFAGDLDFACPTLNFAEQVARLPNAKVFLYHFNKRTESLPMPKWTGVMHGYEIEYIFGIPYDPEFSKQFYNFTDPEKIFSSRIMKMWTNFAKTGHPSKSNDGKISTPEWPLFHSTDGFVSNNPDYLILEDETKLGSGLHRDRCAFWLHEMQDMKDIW
- assayInfo: biochemical
Kindly supply the reported Inhibition (%) Replicate B values for the records listed here.
Answers are plain numbers, in %.

Answered examples (2):
• CCCCCCCCc1ccc(CCC(N)(CO)CO)cc1 = 68.23
• Clc1ccc(CSC(Cn2ccnc2)c2ccc(Cl)cc2Cl)cc1 (stereo not shown) = 63.95

For each of the items listed, what is its Inhibition (%) Replicate B?
1. COc1ccc(NC(=O)Nc2ccc3c(c2)[C@H]2C[C@@H](CC(=O)NCC(F)(F)F)O[C@@H](CO)[C@H]2O3)cc1
2. CCc1nc(-c2cccc(C)c2)c(-c2ccnc(NC(=O)c3ccccc3)c2)s1
3. Clc1ccc(C(c2ccccc2Cl)C(Cl)Cl)cc1 (stereo not shown)
4. C[C@H](CO)N1C[C@H](C)[C@H](CN(C)CC2CC2)OCc2ccccc2-c2c(n(C)c3ccccc23)C1=O
5. COc1ccc(NC(=O)Nc2ccc3c(c2)[C@@H]2C[C@H](CC(=O)NCC4CC4)O[C@@H](CO)[C@@H]2O3)cc1

## Output
1: 90.69; 2: 65.56; 3: 70.66; 4: 64.27; 5: 88.34

###

- testSystem: recombinant human acetylcholinesterase, rHsAChE (Homo sapiens, UniProt P22303)
- Sequence (P22303 32-614): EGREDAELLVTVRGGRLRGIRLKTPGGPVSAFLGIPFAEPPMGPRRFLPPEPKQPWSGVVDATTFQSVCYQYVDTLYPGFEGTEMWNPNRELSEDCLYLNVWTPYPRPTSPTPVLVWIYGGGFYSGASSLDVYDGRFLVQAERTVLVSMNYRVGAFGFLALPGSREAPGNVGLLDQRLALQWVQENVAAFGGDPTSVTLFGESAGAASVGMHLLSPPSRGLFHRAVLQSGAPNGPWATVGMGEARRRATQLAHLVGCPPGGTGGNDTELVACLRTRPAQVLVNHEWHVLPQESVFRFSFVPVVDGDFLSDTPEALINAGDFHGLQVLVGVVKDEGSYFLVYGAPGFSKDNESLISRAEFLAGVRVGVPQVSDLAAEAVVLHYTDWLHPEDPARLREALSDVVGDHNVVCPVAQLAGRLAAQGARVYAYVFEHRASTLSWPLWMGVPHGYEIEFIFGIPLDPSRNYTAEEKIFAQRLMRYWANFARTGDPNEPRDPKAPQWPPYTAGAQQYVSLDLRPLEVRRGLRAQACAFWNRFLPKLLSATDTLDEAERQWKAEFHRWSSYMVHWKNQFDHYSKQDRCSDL
- assayInfo: biochemical
- statedConditions: qAC50 (IC50), rHsAChE
measurementLabel: IC50 (µM)
Answers are plain numbers, in µM.

- CN(CCCCCCCCCCN(C)C(=O)Oc1cccc([N+](C)(C)C)c1)C(=O)Oc1cccc([N+](C)(C)C)c1 [Demecarium bromide, reference compound]: 0.0225

Below are 2 molecules. Give each one its IC50.
1. O=C(O)c1ccc(-c2c[nH]c3ncc(-c4ccccc4)cc23)cc1C1CCCC1 [GSK-650394, reference compound]
2. O=C(NC(=O)c1c(F)cccc1F)Nc1cc(Cl)c(OC(F)(F)C(F)C(F)(F)F)cc1Cl (stereo not drawn) [Lufenuron, reference compound]

## Output
[8.09, 12]

###

- testSystem: rSmTAChE (Schistosoma mansoni, UniProt A0A3Q0KMM5);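 as to Inhibition (%) (Average): mostly 20 µM final but a few compounds at 5 or 10 µM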
- assayInfo: biochemical
measurementLabel: Inhibition (%) (Average)
Numbers only, in %.

• CCCCCCCCCCCCc1ccc(S(=O)(=O)Nc2nncs2)cc1 = 78.08
• COc1cccc(C#Cc2ccc([C@H]3[C@@H](C#N)N(C(=O)c4ccccn4)[C@@H]3CO)cc2)c1 = 66.17

Below is a list of compounds. For each, state its recorded Inhibition (%) (Average).
1. Cc1c(C(=O)NN2CCCCC2)nn(-c2ccc(Cl)cc2Cl)c1-c1ccc(Cl)cc1
2. Clc1ccc(C(Cn2ccnc2)OCc2ccc(Sc3ccccc3)cc2)c(Cl)c1 (stereo not drawn)
3. Nc1nc(NCC2CCC(CNS(=O)(=O)c3cccc4ccccc34)CC2)nc2ccccc12 (stereo not drawn) [CGP-71683, reference compound]
4. COc1ccc(C#Cc2ccc3c(c2)O[C@H](CN(C)S(=O)(=O)c2ccccc2F)[C@@H](C)CN([C@@H](C)CO)S3(=O)=O)cc1
5. C[C@H](NC(=O)C(C)(C)Oc1ccc(C(F)(F)F)cn1)[C@@H](Cc1ccc(Cl)cc1)c1cccc(C#N)c1
6. C[C@]12CC[C@@H]3c4ccc(O)cc4CC[C@H]3[C@@H]1CCC2=O
7. CCCCc1oc2ccccc2c1C(=O)c1cc(I)c(OCCN(CC)CC)c(I)c1

## Output
1. 75.13
2. 70.27
3. 61.37
4. 69.92
5. 62.68
6. 94.45
7. 69.46

# credit: paper PMC12154458
